Test system: NCI-H460 lung
Experiment: NCI-60 one-dose screen, 48 h
Details: 10 µM unless noted
This is part of a sample that, as a whole, favours compounds with a hit. Of some 83,000 tested, about 20% had one in any assay. Active and inactive are the calls of the source. The calls were made as follows: active = growth percent below 10; inactive = the rest.
The categories you may choose from are active, inactive

See these solved cases before continuing.
[
  {
    "compound": "O=c1c2ccccc2nc(-c2ccccc2)n1/N=C/c1ccc2ccccc2c1",
    "assigned.class": "active"
  },
  {
    "compound": "CC1=C(C(=O)OCc2ccccc2)C(c2ccc(-n3cncn3)cc2)n2c(nc3ccccc32)N1 (centres undefined)",
    "assigned.class": "inactive"
  }
]

stdin: Which outcome did this test record for the compound COc1ccc([C@H](C)Nc2nc(Cl)nc3ccccc23)cc1 ?
stdout: inactive

stdin: Which outcome did this test record for the compound CCCCSc1nc(NCCc2c[nH]c3ccccc23)c(C#N)c(-c2ccc(OC)cc2)n1 ?
stdout: inactive

stdin: Which outcome did this test record for the compound Nc1cc2ccccc2c(=O)n1NC(=O)c1ccc(I)cc1 ?
stdout: inactive

stdin: Which outcome did this test record for the compound O=C(Cn1nc(-c2ccccc2)ccc1=O)N/N=C/c1ccc(N2CCOCC2)cc1 ?
stdout: inactive

stdin: Which outcome did this test record for the compound CC(=O)OC[C@@]1(C)C2CC[C@]3(C)C(CC=C4C5CC(C)(C)CC[C@]5(C(=O)Nc5ccc(Br)cc5)CC[C@]43C)[C@@]2(C)C[C@@H](OC(C)=O)[C@@H]1OC(C)=O (some centres undefined) ?
stdout: inactive

stdin: Which outcome did this test record for the compound O=C1CC(Sc2n[nH]c(-c3ccncc3)n2)C(=O)N1c1ccc(Br)cc1 (centres undefined) ?
stdout: inactive

stdin: Which outcome did this test record for the compound Cc1cc2nc3c([nH]c2cc1C)c1ccc(=O)cc1n3CCN(C)C ?
stdout: active

stdin: Which outcome did this test record for the compound CCN(CC)c1ccnc(CNCCSC(c2ccccc2)(c2ccccc2)c2ccc(OC)cc2)c1 ?
stdout: active

stdin: Which outcome did this test record for the compound Cc1ccc(S(=O)(=O)c2nc(S(=O)(=O)c3ccc(C)cc3)c(Cl)s2)cc1 ?
stdout: inactive

stdin: Which outcome did this test record for the compound COc1ccc(-c2cc(C(=O)NCc3ccccc3)nn2-c2ccc(S(C)(=O)=O)cc2)cc1OC ?
stdout: inactive

stdin: Which outcome did this test record for the compound CN(C)c1nc(NCCNS(=O)(=O)c2ccc(C3=Nc4c(N)nc(N)nc4NC(c4ccc(F)cc4)C3)cc2)nc(Nc2ccc(F)cc2)n1 (centres undefined) ?
stdout: inactive

stdin: Which outcome did this test record for the compound O=C(c1ccccc1)c1ccc2nc(-c3cccc(Cl)c3)[nH]c2c1 ?
stdout: inactive

stdin: Which outcome did this test record for the compound C[C@H](Nc1nc(NCCc2ccccc2)nc2ccccc12)c1ccccc1 ?
stdout: active

* * *

Tested on: U251 CNS
Assay: NCI-60 one-dose screen, 48 h (100 = growth as untreated, 0 = no growth, -100 = all killed)
Conditions: 10 µM unless noted
The panel holds about 83,000 compounds, 20% with a hit somewhere; the sample as a whole holds those more often.
measurement.kind: growth (%)
Field format: number, assumed %, no unit text.

Here's what some known entries look like.
[
  {
    "compound": "N#Cc1c(-c2ccc(Br)cc2)nc2n[nH]c(-c3ccc(Br)cc3)c2c1-c1ccc(C(F)(F)F)cc1",
    "tested.on": "U251 CNS",
    "growth [%]": 20.7
  },
  {
    "compound": "CC1[C@H]2[C@H](C[C@H]3[C@@H]4CC=C5c6sc(Nc7ccccc7F)nc6CC[C@]5(C)[C@H]4CC[C@@]32C)O[C@]12CC[C@@H](C)CO2 (stereo partly drawn)",
    "tested.on": "U251 CNS",
    "growth [%]": -88.2
  },
  {
    "compound": "Cc1cc(C)n(-c2ccc3nnc(-c4ccccc4)n3n2)n1",
    "tested.on": "U251 CNS",
    "growth [%]": 102
  }
]

stdin: State the recorded growth for this entry: CC1(C)CC[C@]2(C(=O)O)CC[C@]3(C)C(=CCC4[C@@]5(C)C[C@@H](O)[C@@H]6OC(c7cccc(Br)c7)OC[C@@]6(C)C5CC[C@]43C)C2C1 (stereo partly drawn)
stdout: 22.9

* * *

Reported growth values for a set of molecules
System: ACHN renal
Experiment: NCI-60 one-dose screen, 48 h (100 = growth as untreated, 0 = no growth, -100 = all killed)
Details: 10 µM unless noted
Description: Growth inhibition of the ACHN human tumor cell line is measured as a screen for anti-cancer activity. Cells are grown in 96 well plates and exposed to the test compound for 48 hours. Compounds are tested at a single concentration, which is 10^-5 M for most compounds. The reported endpoint is percent growth (GI% or GIPRCNT), where numbers from 0 - 100% represent growth inhibition, and numbers from -100% - 0 represent cell death. For example, a value of 40 represents 60% growth inhibition. […]
About 83,000 compounds went through this panel and 20% of them were active in at least one assay; those are over-represented in the sample as a whole.
Field format: number, assumed %, no unit text.

Here's what some known entries look like.
[
  {
    "molecule": "COc1cc(-c2cc(-c3cccc(OCC(=O)O)c3)[nH]c(=O)c2C#N)cc(OC)c1OC",
    "unit.symbol": "%",
    "numeric.result": 97
  },
  {
    "molecule": "COc1cc(-c2nc3cc(Cl)c(Cl)cc3[nH]2)ccc1OCc1nnc(-c2cccs2)o1",
    "unit.symbol": "%",
    "numeric.result": 36
  },
  {
    "molecule": "N#Cc1c(-c2ccc(Cl)cc2)nc2n[nH]c(-c3ccc(Cl)cc3)c2c1-c1ccc(C(F)(F)F)cc1",
    "unit.symbol": "%",
    "numeric.result": 2.15
  },
  {
    "molecule": "COc1cc2c(c(OC)c1OC)C(=O)CC(c1cccc(NC(=O)c3cccc(NC(=O)[C@H](C)NC(=O)OC(C)(C)C)c3)c1)O2 (stereo not given in full)",
    "unit.symbol": "%",
    "numeric.result": 41.5
  }
]

Consider the additional molecule presented here.
stdin: State the recorded growth for this entry: O=C(c1ccc(Cl)cc1)c1ccc(OCCCN2CCN(c3ccncc3)CC2)cc1
stdout: 74

* * *

Test system: NCI-H522 lung
Assay: NCI-60 one-dose screen, 48 h
Settings: 10 µM unless noted
About 83,000 compounds went through this panel and 20% of them were active in at least one assay; those are over-represented in the sample as a whole. The source made the active and inactive calls. The calls were made as follows: active = growth percent below 10; inactive = the rest.
The categories you may choose from are active, inactive

See these solved cases before continuing.
[
  {
    "compound": "COc1ccc2[nH]cc(-c3nc(N)nnc3-c3cn(C)c4ncccc34)c2c1",
    "assigned.class": "inactive"
  },
  {
    "compound": "Cc1ccc(C2CC(c3ccc(S(=O)(=O)NCCNc4nc(Nc5ccc(F)cc5)nc(N(C)C)n4)cc3)=Nc3c(N)nc(N)nc3N2)cc1 (stereo not given)",
    "assigned.class": "inactive"
  },
  {
    "compound": "Cc1cc(C)cc(NC(=O)Cn2cc(COn3nnc4ccccc43)nn2)c1",
    "assigned.class": "inactive"
  },
  {
    "compound": "COc1ccc(C(=O)/C=C/c2cccc(Br)c2)cc1S(N)(=O)=O",
    "assigned.class": "active"
  },
  {
    "compound": "CCCCCCCCc1ccc(C(=O)Nc2cccc(P(=O)(O)O)c2)cc1",
    "assigned.class": "inactive"
  },
  {
    "compound": "Cc1ccc(C(=O)CSc2nc3ccc(F)cc3c(=O)n2-c2ccc(Cl)cc2)cc1",
    "assigned.class": "inactive"
  },
  {
    "compound": "CCN1C(=O)N(CC)C2NNC(Sc3c(C(=O)O)c4ccccc4n(C4CCCC4)c3=O)=NC21 (stereo not given)",
    "assigned.class": "active"
  },
  {
    "compound": "Cc1ccc(C(=O)CSc2nc3ccc(C)cc3c(=O)n2-c2ccc(F)cc2)cc1",
    "assigned.class": "inactive"
  }
]

stdin: Which outcome did this test record for the compound O=C(/C=C/c1cccc(OCc2ccccc2)c1)c1nc2ccccc2[nH]1 ?
stdout: inactive

stdin: Which outcome did this test record for the compound O=C(NN1C(=O)/C(=C/C=C/c2ccc([N+](=O)[O-])o2)SC1=S)c1ccccc1O ?
stdout: active

* * *

Test system: SF-539 CNS
Test: NCI-60 one-dose screen, 48 h
Conditions: 10 µM unless noted
About 83,000 compounds went through this panel and 20% of them were active in at least one assay; those are over-represented in the sample as a whole. Calls of active or inactive are those of the source. Rule for the calls: active = growth percent below 10; inactive = the rest.
The categories you may choose from are active, inactive

See these solved cases before continuing.
[
  {
    "record.smiles": "COc1ccc(C(=O)/C=C/c2ccc(OCc3ccc(F)cc3)c(OC)c2)cc1OC",
    "assigned.class": "active"
  },
  {
    "record.smiles": "COc1ccc(NC(=O)Cn2c(O)c(N=Nc3ccc(S(N)(=O)=O)cc3)c3ccccc32)cc1",
    "assigned.class": "inactive"
  },
  {
    "record.smiles": "Cc1ccc(NCC(=O)Cn2cc(COc3ccc(C=Nc4cnc5ccccc5c4)cc3)nn2)cc1",
    "assigned.class": "inactive"
  },
  {
    "record.smiles": "CCN(CC)c1ccnc(CNCCSC(c2ccccc2)(c2ccccc2)c2ccc(OC)cc2)c1",
    "assigned.class": "active"
  }
]

With those in mind, consider the next compound.
stdin: Which outcome did this test record for the compound COc1ccc(C(=O)/C=C/c2ccc3ccccc3c2)cc1S(N)(=O)=O ?
stdout: active
